- tested.target: AKT1-E17K (Homo sapiens, UniProt P31749, E17K)
- Sequence (P31749 whole entry E17K): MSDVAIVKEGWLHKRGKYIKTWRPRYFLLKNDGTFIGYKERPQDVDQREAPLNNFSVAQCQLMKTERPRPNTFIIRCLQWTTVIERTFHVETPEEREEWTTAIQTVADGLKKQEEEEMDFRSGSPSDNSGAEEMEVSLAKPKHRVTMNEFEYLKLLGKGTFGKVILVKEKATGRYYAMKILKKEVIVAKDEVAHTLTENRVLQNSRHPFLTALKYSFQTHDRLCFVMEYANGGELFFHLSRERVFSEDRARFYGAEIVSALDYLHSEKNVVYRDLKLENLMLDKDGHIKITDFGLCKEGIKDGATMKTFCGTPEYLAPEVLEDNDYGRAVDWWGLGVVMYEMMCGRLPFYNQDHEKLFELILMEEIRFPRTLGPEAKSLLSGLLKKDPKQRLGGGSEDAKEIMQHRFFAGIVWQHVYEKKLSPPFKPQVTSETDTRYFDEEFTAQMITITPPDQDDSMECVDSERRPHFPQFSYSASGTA
- measurement.notes: NanoBRET Target Engagement (TE) Assay
We begin with a simple list: items and their reported IC50.
parameter.measured: IC50

>>> recorded_value("Cn1cc(-c2ccc3nc(-c4cccnc4N)n(-c4ccc(CN5CCN(C(=O)c6ccc(O)c(C=O)c6)CC5)cc4)c3n2)ccc1=O [Example 44]")
"> 600 nM"
>>> recorded_value("Nc1ncccc1-c1nc2ccc(-c3ccccc3)nc2n1-c1ccc(CN2CC3(CCN(C(=O)c4ccc(C=O)c(O)c4)CC3)C2)cc1 [Example 96]")
"60 to 600 nM"
>>> recorded_value("Nc1ncccc1-c1nc2ccc(-c3ccccc3)nc2n1-c1ccc(CN2CCC3(CC2)CC(NC(=O)c2ccc(O)c(C=O)c2)C3)cc1 [Example 68]")
"15 to 60 nM"
>>> recorded_value("Nc1ncccc1-c1nc2ccc(-c3ccccc3)nc2n1-c1ccc(CN2CCN(c3cc(O)c(C=O)cc3F)CC2)cc1 [Example 25]")
"15 to 60 nM"
>>> recorded_value("Nc1ncccc1-c1nc2ccc(-c3ccccc3)nc2n1-c1ccc(CN2C3CCC2CN(c2ccc(C=O)c(O)c2)C3)cc1 [Example 114]")
"60 to 600 nM"
>>> recorded_value("Nc1ncccc1-c1nc2ccc(-c3ccccc3)nc2n1-c1ccc(COc2cccc(O)c2C=O)cc1 [Example 137]")
"> 600 nM"
>>> recorded_value("Nc1ncccc1-c1nc2ccc(-c3cccc(F)c3)nc2n1-c1ccc(CN2CCN(C(=O)c3ccc(C=O)c(O)c3)CC2)cc1 [Example 41]")
"60 to 600 nM"
>>> recorded_value("Nc1ncccc1-c1nc2ccc(-c3ccc(Cl)cc3)nc2n1-c1ccc(CN2CCN(c3ccc(C=O)c(O)c3)CC2)cc1 [Example 146]")
"> 600 nM"
>>> recorded_value("Nc1ncccc1-c1nc2ccc(-c3ccccc3)nc2n1-c1ccc(CN2CC3(CCN(C(=O)c4ccc(O)c(C=O)c4)CC3)C2)cc1 [Example 95]")
"60 to 600 nM"
>>> recorded_value("Nc1ncccc1-c1nc2ccc(-c3cccc(F)c3)nc2n1-c1ccc(CN2CCN(C(=O)c3ccc(O)c(C=O)c3)CC2)cc1 [Example 40]")
"60 to 600 nM"
>>> recorded_value("Nc1ncccc1-c1nc2ccc(-c3ccccc3)nc2n1-c1ccc(CN2CCN(c3ccc(O)c(C=O)c3)CC2)cc1 [Example 10]")
"60 to 600 nM"
>>> recorded_value("Nc1ncccc1-c1nc2ccc(-c3ccccc3)nc2n1-c1ccc(CN2CCC(Nc3cccc(O)c3C=O)CC2)cc1 [Example 51]")
"60 to 600 nM"
>>> recorded_value("N#Cc1ccccc1-c1ccc2nc(-c3cccnc3N)n(-c3ccc(CN4CCN(C(=O)c5ccc(C=O)c(O)c5)CC4)cc3)c2n1 [Example 37]")
"60 to 600 nM"
>>> recorded_value("Nc1ncccc1-c1nc2ccc(-c3ccccc3)nc2n1-c1ccc(CN2CC[C@]3(CCN(c4ccc(C=O)c(O)c4)C3)C2)cc1 [Example 103]")
"60 to 600 nM"
>>> recorded_value("Nc1ncccc1-c1nc2ccc(-c3ccccc3)nc2n1-c1ccc(CN2CCC3(CC2)CCN(C(=O)c2ccc(O)c(C=O)c2)C3)cc1 [Example 74]")
"15 to 60 nM"
>>> recorded_value("Nc1ncccc1-c1nc2cccnc2n1-c1ccc(CN2CCN(c3ccc(C=O)c(O)c3)CC2)cc1 [Example 16]")
"60 to 600 nM"
>>> recorded_value("Nc1ncccc1-c1nc2ccc(-c3ccccc3)nc2n1-c1ccc(CN2C[C@@H]3CN(c4ccc(C=O)c(O)c4)C[C@@H]3C2)cc1 [Example 133]")
"60 to 600 nM"
>>> recorded_value("Nc1ncccc1-c1nc2ccc(-c3ccccc3)nc2n1-c1ccc(CN2CCC3(CC2)CCN(c2ccc(C=O)c(O)c2)CC3)cc1 [Example 78]")
"60 to 600 nM"
>>> recorded_value("Nc1ncccc1-c1nc2ccc(-c3ccccc3)nc2n1-c1ccc(CN2CC[C@@H](NC(=O)c3ccc(C=O)c(O)c3)C2)cc1 [Example 64]")
"60 to 600 nM"
>>> recorded_value("Nc1ncccc1-c1nc2ccc(-c3ccccc3)nc2n1-c1ccc(CN2CCC3(CCN(c4ccc(O)c(C=O)c4)C3)C2)cc1 (centres unmarked) [Example 83]")
"60 to 600 nM"
>>> recorded_value("Nc1ncccc1-c1nc2ccc(-c3ccccc3)nc2n1-c1ccc(CN2CCC(N(C(=O)c3ccc(O)c(C=O)c3)C3CC3)CC2)cc1 [Example 12]")
"60 to 600 nM"
>>> recorded_value("Nc1ncccc1-c1nc2ccc(-c3ccccc3)nc2n1-c1ccc(CN2C[C@H]3C[C@@H]2CN3c2ccc(C=O)c(O)c2)cc1 [Example 124]")
"15 to 60 nM"
>>> recorded_value("Nc1ncccc1-c1nc2ccc(-c3ccccc3)nc2n1-c1ccc(CN2CCC3(CC2)CN(C(=O)c2ccc(C=O)c(O)c2)C3)cc1 [Example 71]")
"> 600 nM"
>>> recorded_value("Nc1ncccc1-c1nc2ccc(-c3ccccc3)nc2n1-c1ccc(CN2CCC3(CCCN(c4ccc(C=O)c(O)c4)C3)C2)cc1 (centres unmarked) [Example 88]")
"60 to 600 nM"
>>> recorded_value("Nc1ncccc1-c1nc2cccnc2n1-c1ccc(CNC(=O)c2ccc(C=O)c(O)c2)cc1 [Example 3]")
"> 600 nM"
>>> recorded_value("CCN(C(=O)c1ccc(O)c(C=O)c1)C1CCN(Cc2ccc(-n3c(-c4cccnc4N)nc4ccc(-c5ccccc5)nc43)cc2)CC1 [Example 13]")
"60 to 600 nM"
